Test: gradient 5% acetonitrile 3 min, to 50% in 2 min, to 85% in 15 min, held 3 min, 100 µL/min
Details: column: Zorbax Extend-C18 2.1 x 50 mm; eluents: water / acetonitrile, 0.1% formic acid
Measured RP-LC retention time values are reported for all entries that follow.
measure: RP-LC retention time (s)

compound: CCOC(=O)Nc1csnn1
measure: RP-LC retention time
assay_value: 711
//
compound: Cc1ccc(-c2noc(-c3nn(CC(=O)NC4CCC(C)CC4)c4ccccc34)n2)cc1 (stereo not given)
measure: RP-LC retention time
assay_value: 1300
//
compound: Cc1ccc(Nc2cc(N3CCC(C(=O)N4CCCC4)CC3)ncn2)cc1
measure: RP-LC retention time
assay_value: 632
//
compound: CCCN1CCN(C(=O)C(C)n2nc(C)c3nn(-c4ccccc4)c(-n4cccc4)c3c2=O)CC1 (stereo not given)
measure: RP-LC retention time
assay_value: 692
//
compound: COc1ccc(S(=O)(=O)N2CCC(c3noc(-c4ccc(C)cc4)n3)CC2)cc1
measure: RP-LC retention time
assay_value: 1150

###

Assay: gradient 5% acetonitrile 3 min, to 50% in 2 min, to 85% in 15 min, held 3 min, 100 µL/min
Details: column: Zorbax Extend-C18 2.1 x 50 mm; eluents: water / acetonitrile, 0.1% formic acid
Measured RP-LC retention time values are reported for all entries that follow.

compound: O=C(NCc1ccco1)C1CCN(c2nc3ccccc3nc2C(F)(F)F)CC1
RP-LC retention time: 1000 s
--
compound: O=C(O)c1cc2cc(Cl)ccc2[nH]1
RP-LC retention time: 740 s
--
compound: CCn1c(C)c(CN2CCC(C(=O)NCc3cccc(Cl)c3)CC2)c2ccccc21
RP-LC retention time: 772 s
--
compound: COc1ccc(-c2cc3n(n2)CCCN(C(=O)NCC2CCCO2)C3)cc1 (stereo not given)
RP-LC retention time: 681 s
--
compound: CC(NC(=O)c1ccc(-c2ccsc2)nc1)c1ccc(F)cc1 (stereo not given)
RP-LC retention time: 908 s
--
compound: CCOC(=O)c1c(C)[nH]c(C(=O)N2CCCC(C(=O)NCc3cccc(C)c3)C2)c1C (stereo not given)
RP-LC retention time: 863 s
--
compound: COc1cc(OC)cc(C(=O)N2CCC3(CC2)NC(=O)c2cc(C)ccc2N3C)c1
RP-LC retention time: 795 s
--
compound: CC(NC(=O)C1CCN(c2cc(N3CCCC3)ncn2)CC1)c1ccccc1 (stereo not given)
RP-LC retention time: 644 s
--
compound: CCn1c(CCNC(=O)c2ccc(F)cc2F)nc2cccnc21
RP-LC retention time: 641 s
--
compound: O=C(NCCC1=CCCCC1)C(=O)NCC1OCCCN1S(=O)(=O)c1ccccc1 (stereo not given)
RP-LC retention time: 911 s

###

Test: gradient 5% acetonitrile 3 min, to 50% in 2 min, to 85% in 15 min, held 3 min, 100 µL/min
Conditions: column: Zorbax Extend-C18 2.1 x 50 mm; eluents: water / acetonitrile, 0.1% formic acid

molecule: CCOc1ccc(-c2cc3c(=O)n(Cc4nc(-c5ccccc5C)no4)ccn3n2)cc1
RP-LC retention time / s: 1170
--
molecule: O=C1NC(c2cccc3ccccc23)Nc2ccc(Cl)cc21 (stereo not given)
RP-LC retention time / s: 847
--
molecule: Cc1cc(C)n2c(Nc3c(C)cccc3C)c(-c3ccccc3)nc2n1
RP-LC retention time / s: 743
--
molecule: COc1ccc(-c2nc(-c3cn(-c4ccc(C)cc4)nn3)no2)cc1OC
RP-LC retention time / s: 1050
--
molecule: CC(C)(C)NC(=O)N1CCC2(CC1)CN(c1ccccc1)C2=O
RP-LC retention time / s: 788
--
molecule: O=C(Cn1c(=O)n(C2CC2)c(=O)c2nscc21)N1CCN(c2ccccc2F)CC1
RP-LC retention time / s: 713
--
molecule: O=C(Nc1ccc(Nc2ccncc2)cc1)c1ccc([N+](=O)[O-])cc1
RP-LC retention time / s: 1250
--
molecule: CC(C)n1c(CN2CCOCC2)nc2cc(NC(=O)c3ccco3)ccc21
RP-LC retention time / s: 619
--
molecule: O=S(=O)(c1cc(-c2nnc(C3CCC3)o2)co1)N1CCN(c2ccccc2F)CC1
RP-LC retention time / s: 1070
--
molecule: O=C([C@@H]1C[C@H](F)CN1S(=O)(=O)c1cc(F)ccc1F)N1CCc2ccccc2C1
RP-LC retention time / s: 906
--
molecule: O=C(Nc1ccc(Cl)cc1)N1CCC(n2cnc3ccc(F)cc3c2=O)CC1
RP-LC retention time / s: 848
--
molecule: Cc1ccc(-c2nnc(Cc3nc(-c4cccs4)no3)o2)cc1F
RP-LC retention time / s: 1010
--
molecule: O=C(Nc1cccc(F)c1)Nc1ccc2nncn2c1
RP-LC retention time / s: 686
--
molecule: CCNc1nc(-c2ccc(Br)cc2)cs1
RP-LC retention time / s: 887
--
molecule: CCOc1ccc(NC(=O)Cn2cnc3cc4c(cc32)OCCO4)cc1
RP-LC retention time / s: 661
--
molecule: COc1ccc(-c2nc3nc(C)cc(C)n3c2Nc2c(C)cccc2C)cc1
RP-LC retention time / s: 766
--
molecule: COc1ccc(NC(=O)N2c3ccccc3CC2c2nc(C(C)C)no2)c(C)c1 (stereo not given)
RP-LC retention time / s: 1220
--
molecule: CCc1cc(=O)n(CC(=O)Nc2ccccc2)c(N2CCOCC2)n1
RP-LC retention time / s: 687
--
molecule: CN(C)S(=O)(=O)N1CC(c2nc(Cc3cccnc3)no2)C1
RP-LC retention time / s: 543
--
molecule: O=C(c1ccc(-c2cccs2)nc1)N1CCOCC1
RP-LC retention time / s: 678
--
molecule: CCCn1nnc2cc(-c3noc(C4CC(=O)N(c5ccccc5)C4)n3)ccc21 (stereo not given)
RP-LC retention time / s: 930
--
molecule: CC(C)CN1C(=O)c2cccn2CC1C(=O)NCCCN1CCN(C)CC1 (stereo not given)
RP-LC retention time / s: 548
--
molecule: COc1cccc(-n2ccc(=O)c(-c3nc(-c4ccccc4F)no3)n2)c1
RP-LC retention time / s: 869
--
molecule: Cc1ccc(NC(=O)c2cnn3c2CCCC3)cc1
RP-LC retention time / s: 770
--
molecule: Cc1sc(NC(=O)CN(C)S(C)(=O)=O)c(C#N)c1C
RP-LC retention time / s: 719
--
molecule: CC(C)N1CCn2cc(S(=O)(=O)NCc3ccc(F)cc3F)cc2C1=O
RP-LC retention time / s: 763
--
molecule: N#CCCN(c1ccc(C=O)cc1)S(=O)(=O)c1ccccc1
RP-LC retention time / s: 770
--
molecule: CCOC(=O)N1CCN(c2ncc(C(=O)Nc3ccccc3)c(N)n2)CC1
RP-LC retention time / s: 692
--
molecule: CC(C)CN1CCN(C(=O)C2CCCN(c3nnc4ccc(C(F)(F)F)cn34)C2)CC1 (stereo not given)
RP-LC retention time / s: 614
--
molecule: CCCCCNC(=O)c1cn(C)nc1S(=O)(=O)N1CCSCC1
RP-LC retention time / s: 897
--
molecule: O=C(Nc1nc2c(Cl)cccc2s1)C1COc2ccccc2O1 (stereo not given)
RP-LC retention time / s: 983
--
molecule: Cc1ccoc1C(=O)N1CCC2(CCC2O)CC1 (stereo not given)
RP-LC retention time / s: 645
--
molecule: Cc1cc2c(N3CCCC(C(=O)NCc4ccc(N5CCC(C)CC5)cc4)C3)nccc2s1 (stereo not given)
RP-LC retention time / s: 592
--
molecule: CCOC(=O)C1=C(CN2CCN(Cc3ccc4c(c3)OCO4)CC2)NC(=O)NC1c1ccc(C)cc1 (stereo not given)
RP-LC retention time / s: 585
--
molecule: CCCS(=O)(=O)N1CC(n2cc(C(=O)NCC3CC3)nn2)C1
RP-LC retention time / s: 722
--
molecule: CC1CCCN(c2ccc(-c3noc(CN4CCN(c5ccccn5)CC4)n3)cn2)C1 (stereo not given)
RP-LC retention time / s: 908
--
molecule: Cc1ccc(N2CCN(C(=O)c3csc(C(=O)NC4CC4)n3)CC2)cc1
RP-LC retention time / s: 800
--
molecule: CCOC(=O)c1ccc(NC(=O)C2CCCN(S(=O)(=O)c3ccc(OC)c(Cl)c3)C2)cc1 (stereo not given)
RP-LC retention time / s: 1060
--
molecule: O=C(CN1CCC(COCc2ccccc2)CC1)NCc1ccco1
RP-LC retention time / s: 571
--
molecule: CCN1C(=O)COc2ccc(-c3nc(NC(=O)c4cc(OC)c(OC)c(OC)c4)sc3C)cc21
RP-LC retention time / s: 1020

Sourced from the METLIN SMRT retention time set (Domingo-Almenara et al. 2019)
